# TARGET OR SYSTEM: T1, RsmE P64W (Pseudomonas protegens, UniProt P0DPC3, P64W)
# T1 sequence: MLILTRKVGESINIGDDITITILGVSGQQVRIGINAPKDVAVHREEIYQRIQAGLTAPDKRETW
# ASSAY: ITC; other site of the dimer holds one SL2 RNA; 50 mM potassium phosphate pH 7.2, 10 mM NaCl, 298 K; 10 uM monomer in the cell
# MEASUREMENT CONTEXT: tags: C-His6 (kept); chain copies: 2; hairpin; 2 copies of the RNA per protein dimer, value for the second

BINDER: GGGCCAUCAAGGACGAUGGUCC (ssRNA, T7 transcript (5' triphosphate expected)) [SL2]
Kd [nM]: 22.3
